sequences and their reported PBM binding z-score
# Tested on: LXRb homodimer (NR concentration 270 nM)
# MEASUREMENT_NOTES: PBM binding z-score (relative to random genomic background probes); higher = stronger binding; sequences stand for … in GC…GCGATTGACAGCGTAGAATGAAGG
Reply with the value as a number alone.

As a guide, the following entries are already answered.
1) GCAACTGGGGCAAAGCAGGTTACCATAAGGTTGG	-0.769
2) AATACAGGGTCACTAGGCCAGAGCAGGTACGAAT	0.86
3) TCTGCTACGTCAACGATGGTCAGCTAATCTGCTA	-0.541

# ---- query sequence ----
Lab entry: LXRb homodimer (NR concentration 270 nM) assay, sequence TCTAGTTGGTCAAAGGTCACACACTCGAAATGCG , PBM binding z-score = 1.76
